pIC50: −log10 of the molar value.
pIC50, Pim-2 (Homo sapiens (Human)): measured values
measure: pIC50

[
  {
    "molecule": "C[C@H]1CN(c2ccncc2NC(=O)c2ccc3ccc(N4CCC(N5CCOCC5)CC4)cc3n2)C[C@@H](N)[C@@H]1O",
    "studyTarget": "Pim-2 (Homo sapiens (Human))",
    "measure": "pIC50",
    "observedMeasurement": "≥ 7.00"
  },
  {
    "molecule": "C[C@H]1CN(c2ccncc2NC(=O)c2ccc3ccc(N4CCC(C(F)(F)F)C4)cc3n2)C[C@@H](N)[C@@H]1O (stereo partly shown)",
    "studyTarget": "Pim-2 (Homo sapiens (Human))",
    "measure": "pIC50",
    "observedMeasurement": "6.00 to 7.00"
  },
  {
    "molecule": "COc1ccc(-c2cnc3ccc(C(=O)Nc4cnccc4N4C[C@@H](N)[C@H](O)[C@@H](C5CC5)C4)nc3c2)cn1",
    "studyTarget": "Pim-2 (Homo sapiens (Human))",
    "measure": "pIC50",
    "observedMeasurement": "≥ 7.00"
  },
  {
    "molecule": "C[C@@H]1C[C@H](N)CN(c2ccncc2NC(=O)c2ccc3ccc(N4CCC5(CCOCC5)CC4)cc3n2)C1",
    "studyTarget": "Pim-2 (Homo sapiens (Human))",
    "measure": "pIC50",
    "observedMeasurement": "6.00 to 7.00"
  }
]

====

The following compounds are listed with their measured IC50 values.
target: Pim-2 (Homo sapiens (Human), UniProt Q9P1W9)
Sequence (Q9P1W9 whole entry): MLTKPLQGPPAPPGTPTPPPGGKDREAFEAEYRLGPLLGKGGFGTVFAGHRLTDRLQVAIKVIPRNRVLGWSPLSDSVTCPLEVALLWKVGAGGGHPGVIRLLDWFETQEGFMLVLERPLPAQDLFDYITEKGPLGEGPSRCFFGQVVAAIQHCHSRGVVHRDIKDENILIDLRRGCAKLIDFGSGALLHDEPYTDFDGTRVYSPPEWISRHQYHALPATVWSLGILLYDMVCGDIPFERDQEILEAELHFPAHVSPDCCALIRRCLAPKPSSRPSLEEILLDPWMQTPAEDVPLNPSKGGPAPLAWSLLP

[
  {
    "compound": "C[C@H]1CN(c2ccncc2NC(=O)c2ccc3ccc(N4CCC(c5ccncc5)CC4)cc3n2)C[C@@H](N)[C@@H]1O",
    "IC50": "≤ 100 nM"
  },
  {
    "compound": "COc1cc(F)c(-c2cnc3ccc(C(=O)Nc4cnccc4N4C[C@@H](N)[C@H](O)[C@@H](C5CC5)C4)nc3c2)c(F)c1",
    "IC50": "≤ 100 nM"
  },
  {
    "compound": "C[C@H]1CN(c2ccncc2NC(=O)c2ccc3ccc(N4CCC5(CCOCC5)CC4)cc3n2)C[C@@H](N)[C@@H]1O",
    "IC50": "≤ 100 nM"
  },
  {
    "compound": "C[C@H]1CN(c2ccncc2NC(=O)c2ccc3ccc(-c4cnn(C)c4)cc3n2)C[C@@H](N)[C@@H]1O",
    "IC50": "≤ 100 nM"
  },
  {
    "compound": "C[C@@H]1C[C@H](N)CN(c2ccncc2NC(=O)c2ccc3ccc(N4CCCC4)cc3n2)C1",
    "IC50": "100 to 1000 nM"
  },
  {
    "compound": "N[C@@H]1CN(c2ccncc2NC(=O)c2ccc3ncc(N4CCC5(CCOCC5)CC4)cc3n2)C[C@H](C2CC2)[C@H]1O",
    "IC50": "100 to 1000 nM"
  },
  {
    "compound": "C[C@@H]1C[C@H](N)CN(c2ccncc2NC(=O)c2ccc3ccc(N4CCC4)cc3n2)C1",
    "IC50": "≤ 100 nM"
  },
  {
    "compound": "COC1CCN(c2ccc3ccc(C(=O)Nc4cnccc4N4C[C@@H](N)[C@H](O)[C@@H](C)C4)nc3c2)CC1",
    "IC50": "≤ 100 nM"
  },
  {
    "compound": "C[C@@H]1C[C@H](N)CN(c2ccncc2NC(=O)c2ccc3ccc(N4CCOCC4)cc3n2)C1",
    "IC50": "≤ 100 nM"
  },
  {
    "compound": "COc1ccc(-c2cnc3ccc(C(=O)Nc4cnccc4N4C[C@@H](N)[C@H](O)[C@@H](C)C4)nc3c2)cn1",
    "IC50": "≤ 100 nM"
  },
  {
    "compound": "C[C@@H]1C[C@H](N)CN(c2ccncc2NC(=O)c2ccc3ccc(N4CC(C)(C)C4)cc3n2)C1",
    "IC50": "1000 to 10000 nM"
  },
  {
    "compound": "CCn1cc(-c2ccc3ccc(C(=O)Nc4cnccc4N4C[C@@H](N)[C@H](O)[C@@H](C)C4)nc3c2)cn1",
    "IC50": "≤ 100 nM"
  },
  {
    "compound": "C[C@@H]1C[C@H](N)CN(c2ccncc2NC(=O)c2ccc3ccc(-c4cnn(C)c4)cc3n2)C1",
    "IC50": "≤ 100 nM"
  },
  {
    "compound": "C[C@@H]1C[C@H](N)CN(c2ccncc2NC(=O)c2ccc3ncc(C4CCOCC4)cc3n2)C1",
    "IC50": "100 to 1000 nM"
  },
  {
    "compound": "C[C@H]1CN(c2ccncc2NC(=O)c2ccc3ccc(-c4cccnc4)cc3n2)C[C@@H](N)[C@@H]1O",
    "IC50": "≤ 100 nM"
  },
  {
    "compound": "C[C@@H]1C[C@H](N)CN(c2ccncc2NC(=O)c2ccc3ccc(N4CCC(C(F)(F)F)C4)cc3n2)C1 (stereo partly shown)",
    "IC50": "100 to 1000 nM"
  }
]

====

test system: pBAD in KMS.12.BM cells; test: Pim pBAD signaling assay in KMS.12.BM cells (Example B); assay type: cell-based; conditions: Homo sapiens, 2.5 h incubation, pBAD ELISA
pIC50: −log10 of the molar value.
measure: pIC50

[
  {
    "compound": "Cn1cc(-c2cnc3ccc(C(=O)Nc4cnccc4N4C[C@@H](N)[C@H](O)[C@@H](C5CC5)C4)nc3c2)cn1",
    "measure": "pIC50",
    "observedMeasurement": "6.60 to 7.30"
  },
  {
    "compound": "CC(C)c1ccc2ccc(C(=O)Nc3cnccc3N3C[C@@H](N)[C@H](O)[C@@H](C)C3)nc2c1",
    "measure": "pIC50",
    "observedMeasurement": "≥ 7.30"
  },
  {
    "compound": "CCn1cc(-c2cnc3ccc(C(=O)Nc4cnccc4N4C[C@H](C)C[C@H](N)C4)nc3c2)cn1",
    "measure": "pIC50",
    "observedMeasurement": "≥ 7.30"
  },
  {
    "compound": "C[C@H]1CN(c2ccncc2NC(=O)c2ccc3ccc(N4CCOCC4)cc3n2)C[C@@H](N)[C@@H]1O",
    "measure": "pIC50",
    "observedMeasurement": "≥ 7.30"
  },
  {
    "compound": "C[C@@H]1C[C@H](N)CN(c2ccncc2NC(=O)c2ccc3ccc(-c4cnn(C)c4)cc3n2)C1",
    "measure": "pIC50",
    "observedMeasurement": "≥ 7.30"
  },
  {
    "compound": "C[C@H]1CN(c2ccncc2NC(=O)c2ccc3ccc(N4CCCC4)cc3n2)C[C@@H](N)[C@@H]1O",
    "measure": "pIC50",
    "observedMeasurement": "6.60 to 7.30"
  },
  {
    "compound": "N#Cc1ccccc1-c1cnc2ccc(C(=O)Nc3cnccc3N3C[C@@H](N)C[C@@H](C(F)(F)F)C3)nc2c1",
    "measure": "pIC50",
    "observedMeasurement": "≥ 7.30"
  }
]

====

test system: pBAD in KMS.12.BM cells; test: Pim pBAD signaling assay in KMS.12.BM cells (Example B); assay type: cell-based; details: Homo sapiens, 2.5 h incubation, pBAD ELISA

[
  {
    "molecule": "C[C@@H]1C[C@H](N)CN(c2ccncc2NC(=O)c2ccc3ncc(-c4c(F)cccc4F)cc3n2)C1 [Example 1]",
    "studyTarget": "pBAD in KMS.12.BM cells",
    "IC50": "≤ 50 nM"
  },
  {
    "molecule": "C[C@@H]1C[C@H](N)CN(c2ccncc2NC(=O)c2ccc3ccc(N4CCC(N5CCOCC5)CC4)cc3n2)C1 [Example 27]",
    "studyTarget": "pBAD in KMS.12.BM cells",
    "IC50": "50 to 250 nM"
  },
  {
    "molecule": "C[C@H]1CN(c2ccncc2NC(=O)c2ccc3ccc(N4CCN(C)CC4)cc3n2)C[C@@H](N)[C@@H]1O [Example 18]",
    "studyTarget": "pBAD in KMS.12.BM cells",
    "IC50": "50 to 250 nM"
  },
  {
    "molecule": "COc1ccc(-c2cnc3ccc(C(=O)Nc4cnccc4N4C[C@@H](N)[C@H](O)[C@@H](C)C4)nc3c2)cn1 [Example 7]",
    "studyTarget": "pBAD in KMS.12.BM cells",
    "IC50": "≤ 50 nM"
  },
  {
    "molecule": "COc1ccc(-c2cnc3ccc(C(=O)Nc4cnccc4N4C[C@@H](N)[C@H](O)[C@@H](C5CC5)C4)nc3c2)cn1 [Example 36]",
    "studyTarget": "pBAD in KMS.12.BM cells",
    "IC50": "≤ 50 nM"
  },
  {
    "molecule": "N[C@@H]1CN(c2ccncc2NC(=O)c2ccc3ncc(-c4ccc(N5CCOCC5)nc4)cc3n2)C[C@H](C2CC2)[C@H]1O [Example 37]",
    "studyTarget": "pBAD in KMS.12.BM cells",
    "IC50": "≤ 50 nM"
  },
  {
    "molecule": "C[C@H]1CN(c2ccncc2NC(=O)c2ccc3ccc(C4CCOCC4)cc3n2)C[C@@H](N)[C@@H]1O [Example 11]",
    "studyTarget": "pBAD in KMS.12.BM cells",
    "IC50": "50 to 250 nM"
  }
]
